# assayed system: CDK2/CycE (Homo sapiens (Human))
# assay notes: CDK2/CycE kinase assay
# setup conditions: histone IIIS substrate, 0.5 μm ATP
reported property: IC50 (nM)

I. CCS(=N)(=O)c1ccc(Nc2ncc(Br)c(N[C@H](C)[C@@H](C)O)n2)cc1 (single isomer, unassigned) [Example 1.53]
II. COC[C@@H](Nc1nc(Nc2ccc(S(C)(=N)=O)cc2)ncc1Br)[C@@H](C)O (single isomer, unassigned) [Example 1.47]
Problem: Please choose the item with the lower IC50 value from this pair: I and II State your choice using its label.
Result: I
(I: 4 nM, II: 6 nM)

---

# Tested on: MCF7
# assay notes: Proliferation assay, MCF7
# Type: cell-based, human
# setup conditions: Homo sapiens, MCF7, 96 h, MCF7 cells, 4 days, crystal violet
reported property: IC50 (nM)

Use the examples below as a reference point.
> print(dat)
                                   compound  assayed.system  result.number
1  COC[C@@H](Nc1nc(Nc2ccc(S(C)(=N)=O)cc2)ncc1Br)[C@@H](C)O (mixture of isomers) [Example 1.46]            MCF7            200
2  Cc1cc(Nc2ncc(Br)c(N[C@H](C)C(C)(C)O)n2)ccc1S(C)(=N)=O (single isomer, unassigned)            MCF7            110

1. C[C@@H](Nc1nc(Nc2ccc(S(C)(=N)=O)cc2)ncc1Br)C(C)(C)O (single isomer, unassigned)
2. CCS(=N)(=O)c1ccc(Nc2ncc(Br)c(N[C@H](C)[C@@H](C)O)n2)cc1 (mixture of isomers) [Example 1.51]
3. CCS(=N)(=O)c1ccc(Nc2ncc(Br)c(N[C@H](COC)[C@@H](C)O)n2)cc1 (single isomer, unassigned) [Example 1.50]
Problem: Hey, quick one: sort these by IC50, largest value first please. Give your ranking as a list of the labels in the requested order.
Result: 3, 1, 2
